Hello, the source for this data is ChEMBL document CHEMBL2010766, in case you need it.

Could you please report measured log10(Ki) for the items listed next?
STUDY_SYSTEM: 5-hydroxytryptamine receptor 3A (Rattus norvegicus)
Sequence (P35563 whole entry): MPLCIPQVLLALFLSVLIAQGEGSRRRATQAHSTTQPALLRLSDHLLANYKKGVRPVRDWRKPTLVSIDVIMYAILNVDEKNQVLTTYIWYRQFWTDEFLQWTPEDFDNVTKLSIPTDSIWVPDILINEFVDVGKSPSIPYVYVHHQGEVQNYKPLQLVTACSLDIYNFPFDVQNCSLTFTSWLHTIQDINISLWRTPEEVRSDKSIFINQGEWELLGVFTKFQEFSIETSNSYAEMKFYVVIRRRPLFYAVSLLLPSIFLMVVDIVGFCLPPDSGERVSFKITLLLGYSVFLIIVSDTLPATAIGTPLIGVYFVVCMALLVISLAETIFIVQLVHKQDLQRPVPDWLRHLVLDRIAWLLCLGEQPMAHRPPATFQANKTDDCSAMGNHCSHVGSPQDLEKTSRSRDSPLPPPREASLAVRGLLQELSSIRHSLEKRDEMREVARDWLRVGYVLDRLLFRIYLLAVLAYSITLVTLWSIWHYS
Record value = log10 of Ki given in nM.

# log10(Ki) lookup, item "Cc1c(N2CCN(C)CC2)nc2ccccc2c1C(=O)NCCCCCCCCNC(=O)c1c(C)c(N2CCN(C)CC2)nc2ccccc12"
1.83

# log10(Ki) lookup, item "Cc1c(N2CCN(C)CC2)nc2ccccc2c1C(=O)NCCOCCOCCNC(=O)c1c(C)c(N2CCN(C)CC2)nc2ccccc12"
0.89

# log10(Ki) lookup, item "Cc1c(N2CCN(C)CC2)nc2ccccc2c1C(=O)NCCCCCCCNC(=O)c1c(C)c(N2CCN(C)CC2)nc2ccccc12"
0.43

# log10(Ki) lookup, item "Cc1c(N2CCN(C)CC2)nc2ccccc2c1C(=O)NCCCCCCCNc1c2c(nc3ccccc13)CCCC2"
0.75

# log10(Ki) lookup, item "Cc1c(N2CCN(C)CC2)nc2ccccc2c1C(=O)NCCCCCCNc1c2c(nc3ccccc13)CCCC2"
1.85

# log10(Ki) lookup, item "Cc1c(N2CCN(C)CC2)nc2ccccc2c1C(=O)NCCOCCOCCOCCOCCOCCOCCOCCNC(=O)NC[13C](=O)O"
2.03

# log10(Ki) lookup, item "Cc1c(N2CCN(C)CC2)nc2ccccc2c1C(=O)NCCOCCOCCOCCOCCOCCOCCOCCOCCOCCNC(=O)NC[13C](=O)O"
2.19

# log10(Ki) lookup, item "Cc1c(N2CCN(C)CC2)nc2ccccc2c1C(=O)NCCOCCOCCOCCOCCOCCOCCOCCOCCOCCNC(=O)OC(C)(C)C"
1.85

# log10(Ki) lookup, item "Cc1c(N2CCN(C)CC2)nc2ccccc2c1C(=O)NCCOCCOCCOCCOCCOCCOCCOCCNC(=O)OC(C)(C)C"
1.95

# log10(Ki) lookup, item "Cc1c(N2CCN(C)CC2)nc2ccccc2c1C(=O)NCCCCCCNC(=O)c1c(C)c(N2CCN(C)CC2)nc2ccccc12"
1.45
